All values here come from ChEMBL document CHEMBL2401727.

assay: Elimination half life in human; conditions: in vivo
REPORTED_PROPERTY: half-life (h)
Return type: number; implicit unit h.

stdin: Endpoint output: half-life of Cc1cccc(C)c1OCC(C)N (stereo unspecified) . Value?
stdout: 10

====

system: Ileum; experiment: Relaxtant activity in guinea pig K+-depolarized ileum longitudinal smooth muscle assessed as inhibition of calcium-induced contraction; type: functional, tissue-based; conditions: Cavia porcellus
REPORTED_PROPERTY: IC50 (µM)
Return type: number; implicit unit µM.

Example entries begin here.
• Cc1cccc(C)c1OCC(C)N (stereo not drawn) [MEXILETINE] = 8.52
• Cc1ccc(O)c(C)c1OCC(C)N (racemic) = 25.8

stdin: Endpoint output: IC50 of `Cc1ccc(O)c(C)c1OC[C@H](C)N` . Value?
stdout: 13.6
